fold induction at 10 µM by entry:
# Tested on: E-cadherin expression in H520 cells
# assay: E-cadherin expression, in-cell Western (ICW), H520 cells
# Type: cell-based
# experimental-parameters: Homo sapiens, NCI-H520; change in expression level of E-cadherin in response to 10 μM compound, 24 hours, H520 cells

structure-string: O=C(NCCNC(=O)c1cc(-c2ccccc2)[nH]n1)c1ccncc1
assay-system: E-cadherin expression in H520 cells
fold induction at 10 µM: 1.22
//
structure-string: O=C(NCCNC(=O)c1cc(F)ccc1O)c1cc(-c2ccccc2)[nH]n1
assay-system: E-cadherin expression in H520 cells
fold induction at 10 µM: 1.04
//
structure-string: O=C(NCCNC(=O)c1nccs1)c1cc(-c2ccccc2)on1
assay-system: E-cadherin expression in H520 cells
fold induction at 10 µM: 4.22
//
structure-string: O=C(Cc1ccccc1O)NCCNC(=O)c1cc(-c2ccccc2)on1
assay-system: E-cadherin expression in H520 cells
fold induction at 10 µM: 3.51
//
structure-string: O=C(NCCCNC(=O)c1n[nH]c2ccccc12)c1cc(-c2ccccc2)on1
assay-system: E-cadherin expression in H520 cells
fold induction at 10 µM: 1.88
//
structure-string: O=C(NCCCNC(=O)c1cccnc1O)c1cc(-c2ccccc2)on1
assay-system: E-cadherin expression in H520 cells
fold induction at 10 µM: 5.54
//
structure-string: O=C(NCCNC(=O)c1nccs1)c1cc(-c2ccccc2)[nH]n1
assay-system: E-cadherin expression in H520 cells
fold induction at 10 µM: 1.1
//
structure-string: O=C(NCCCNC(=O)c1cc(F)ccc1O)c1cc(-c2ccccc2)on1
assay-system: E-cadherin expression in H520 cells
fold induction at 10 µM: 5.27
//
structure-string: O=C(Cc1ccccc1O)NCCCNC(=O)c1cc(-c2ccccc2)on1
assay-system: E-cadherin expression in H520 cells
fold induction at 10 µM: 5.92

The origin of these recorded values is patent US9783510B2.
